src = PubChem BioAssay AID192

tested on: BDF1 mice, B16 melanoma ip, median survival T/C; assay: NCI In Vivo Anticancer Drug Screen. Data for tumor model B16 Melanoma (intraperitoneal) in B6D2F1 (BDF1) mice; details: endpoint: median survival time; dose: 100.0 mg/kg/injection; schedule: Q01DX009 (ip); vehicle: Klucel (hydroxypropylcellulose) (HPC); higher = longer survival
Inconclusive results and toxic doses are left out.
Measured endpoint: T/C

Task: Requested field: T/C. Item: "C1CC[N-]CC1.CC(=N\O)/C(C)=N/O.CC(=N\O)/C(C)=N/O.[CH3-].[Co+2]"
Output: 88 % of control

Task: Now consider "Cc1ccc(S(=O)(=O)N=N/C=C2/C=CC=CN2O)cc1" and answer again.
Output: 115 % of control

Task: Next record, please: CC(=O)NC(C=O)C(O)C(O)C(O)C(=O)O (configuration not stated)
Output: 92 % of control

For every record below, what is its T/C?
1. Nc1ccc(OCc2ccc(S(=O)(=O)F)c(Cl)c2)c(Cl)c1
2. NC(=O)c1ccccc1C(N)=O
3. CCCCn1c(=S)[nH]c2ccccc2c1=O
4. COc1ccc(Br)cc1/C=N\NS(=O)(=O)c1ccc(C)cc1
5. C=CCc1ccccc1C
6. CCN(CC)Cc1ncccc1O

Output:
["110 % of control", "100 % of control", "98 % of control", "94 % of control", "104 % of control", "103 % of control"]

Fill in T/C for each of the 3 compounds listed.
1. CC(=O)C12OC1(C)CC1C3CC=C4CC(O)CCC4(C)C3CCC12C (configuration not stated)
2. O=[N+]([O-])c1cc([As](=O)(O)O)ccc1Cl
3. C#CC1(OCC2CN(c3ccccc3)C(=O)O2)CCCCC1 (configuration not stated)

Output:
["107 % of control", "96 % of control", "95 % of control"]

* * *

tested on: BDF1 mice, B16 melanoma ip, median survival T/C; test: NCI In Vivo Anticancer Drug Screen. Data for tumor model B16 Melanoma (intraperitoneal) in B6D2F1 (BDF1) mice; conditions: endpoint: median survival time; dose: 200.0 mg/kg/injection; schedule: Q01DX009 (ip); vehicle: saline with Tween-80; higher = longer survival
Toxic doses and inconclusive results are not listed.
Measured endpoint: T/C

Study these solved cases before continuing.
Task: So what does the record say about T/C for "O=C(O)COc1ccc([N+](=O)[O-])cc1" ?
Output: 87 % of control

Task: What do you have for COC(=O)C(Br)C1CCCCC1 (stereo not drawn) ?
Output: 99 % of control

Task: // same read-out, input: CC(=O)NC(CO)C(=O)c1ccc(S(=O)(=O)c2ccccc2)cc1 (stereo not drawn)
Output: 93 % of control

Task: Try the compound "CCc1cc(C)cc(OC(=O)Nc2ccc(Cl)cc2)c1"
Output: 87 % of control

Give T/C for each of the items listed below.
1. CC(C)CC(NC(=O)OCc1ccccc1)C(=O)NC(Cc1c[nH]c2ccccc12)C(=O)O (stereo not drawn)
2. CC(=O)OCC(Br)C(Br)COC(C)=O (stereo not drawn)
3. NC(CCSCc1ccccc1)C(=O)O (stereo not drawn)
4. O=[N+]([O-])c1ccc2ccccc2c1I
5. CC(C)(C)OC(=O)NCCCC(NC(=O)OCc1ccccc1)C(=O)O (stereo not drawn)
6. CCNc1nc(Cl)nc(NC(C)C)n1
7. C1CC[N-]CC1.C1CC[N-]CC1.C1CC[N-]CC1.[Cl][Rh]([Cl])[Cl]

Output:
96 % of control
97 % of control
96 % of control
103 % of control
96 % of control
104 % of control
100 % of control

Items follow; give T/C for each.
1. O=C(O)C1OC1c1ccccc1 (stereo not drawn)
2. CCC(=O)/C=C/C1=C(C)CCCC1(C)C

Output:
1. 102 % of control
2. 92 % of control
